Assay: PSAC antagonists in infected red cells, primary screen, cell-based, P. falciparum Indochina, OD700, 18 h (AID 1157)
Conditions: P. falciparum Indochina infected erythrocytes, osmotic lysis OD700, 18 h; higher = more signal, called active from +8 up or from −8 down
readout_name: z-score
Keep it simple and answer with nothing but the number.

(Q) What z-score value was documented for this compound, "COCCOC(=O)N1C(=O)[C@@]2(c3cc(C#CCNC(N)=O)ccc31)[C@H](C(=O)NC[C@H](O)c1ccccc1)[C@H]1C(=O)O[C@H](c3ccccc3)[C@H](c3ccccc3)N1[C@@H]2c1ccc(OCCO)cc1" ?
(A) 0.581

(Q) Which measured z-score value corresponds to "C=C(/C(=C/C[C@H](OC(=O)c1ccncc1)c1ccccc1OCCO)c1cc(C(=O)OC)ccc1OC)C(C)C" ?
(A) 1.02

(Q) # query: z-score of entry "COCCOC(=O)N1C(=O)[C@@]2(c3cc(C#CC4(O)CCCCCC4)ccc31)[C@H](c1ccc(OCCO)cc1)N1[C@H](c3ccccc3)[C@H](c3ccccc3)OC(=O)[C@H]1[C@@H]2C(=O)N1CCCCCCC1"
(A) 1.02

(Q) Need z-score, item "CC(C)C[C@@H]1NC(=O)[C@H]2C[C@@H](C(=O)NCCCCCNC(=O)CS)[C@@H](c3ccc(O)cc3)N2C1=O"
(A) 0.277

(Q) I have this compound here, CCCCCN1CC=CC23O[C@@H]4C=CCOC(=O)[C@@H]4[C@H]2C(=O)N(CCCCCO)[C@@H]3C1=O (some centres undefined) , and I need its recorded z-score.
(A) 0.601

(Q) Sample "COCCOC(=O)N1C(=O)[C@@]2(c3cc(C#CCC(C(=O)OC)C(=O)OC)ccc31)[C@H](c1ccc(OCCO)cc1)N1[C@H](c3ccccc3)[C@H](c3ccccc3)OC(=O)[C@H]1[C@@H]2C(=O)N1CCCCCCC1" — what was its z-score?
(A) 0.901

(Q) Need z-score of "CC(C)C[C@@H]1NC(=O)[C@@H]2C[C@H](C(=O)NCCCC[N+](C)(C)C)[C@H](c3ccc(O)cc3)N2C1=O" , thanks.
(A) 0.449

(Q) Quick one: z-score for "Cc1c(-c2ccc(-c3ccc(Cl)c(Cl)c3)o2)nc(-c2ccccc2)c2c1CO[Si]2(C(C)C)C(C)C" ?
(A) -0.944

(Q) For the compound "CN(C)CCCNC(=O)[C@@]1(Cc2ccccc2I)c2ccccc2C(=O)N(Cc2ccccc2)[C@H]1c1ccc(CO)cc1" , what z-score is on record?
(A) 0.452

(Q) Consider the compound N#Cc1ccc(C(O)C2C=CC3C(=O)NC(=O)C3N2Nc2ccccn2)cc1 (centres undefined) and give its measured z-score.
(A) -1.01

(Q) Given the compound C=CCC(OC(C)=O)[C@@H]1[C@@H](N(Cc2cccc3ccccc23)C(=O)c2ccc(-c3ccccc3)cc2)c2cc(OCCCO)ccc2N1C(=O)c1ccc2ccccc2n1 (some centres undefined) , what is its reported z-score?
(A) -0.0821

(Q) z-score lookup needed for "C=C(COC)/C(=C/C[C@@H](OC(C)=O)c1ccccc1OCCO)c1cc(C(=O)OC)ccc1OC" , thanks.
(A) 1.04

(Q) Look at this compound and give its reported z-score. CC1CC/C=C\[C@H]2OC34C=CCN(c5ccc(Cl)cc5)C(=O)[C@H]3N(CCCO)C(=O)[C@]4(C)C2C(=O)O1 (some centres undefined)
(A) 0.356

(Q) Reported z-score for "C=C(COC)/C(=C/C[C@H](OC(=O)c1ccncc1)c1ccc(OCCO)cc1)c1cc(C(=O)OC)ccc1OC" : what is it?
(A) -1.02
